// provenance: ChEMBL document CHEMBL2406977

The following molecules have recorded IC50 on Serine/threonine-protein kinase PLK2 (Homo sapiens, UniProt Q9NYY3).
Sequence (Q9NYY3 whole entry): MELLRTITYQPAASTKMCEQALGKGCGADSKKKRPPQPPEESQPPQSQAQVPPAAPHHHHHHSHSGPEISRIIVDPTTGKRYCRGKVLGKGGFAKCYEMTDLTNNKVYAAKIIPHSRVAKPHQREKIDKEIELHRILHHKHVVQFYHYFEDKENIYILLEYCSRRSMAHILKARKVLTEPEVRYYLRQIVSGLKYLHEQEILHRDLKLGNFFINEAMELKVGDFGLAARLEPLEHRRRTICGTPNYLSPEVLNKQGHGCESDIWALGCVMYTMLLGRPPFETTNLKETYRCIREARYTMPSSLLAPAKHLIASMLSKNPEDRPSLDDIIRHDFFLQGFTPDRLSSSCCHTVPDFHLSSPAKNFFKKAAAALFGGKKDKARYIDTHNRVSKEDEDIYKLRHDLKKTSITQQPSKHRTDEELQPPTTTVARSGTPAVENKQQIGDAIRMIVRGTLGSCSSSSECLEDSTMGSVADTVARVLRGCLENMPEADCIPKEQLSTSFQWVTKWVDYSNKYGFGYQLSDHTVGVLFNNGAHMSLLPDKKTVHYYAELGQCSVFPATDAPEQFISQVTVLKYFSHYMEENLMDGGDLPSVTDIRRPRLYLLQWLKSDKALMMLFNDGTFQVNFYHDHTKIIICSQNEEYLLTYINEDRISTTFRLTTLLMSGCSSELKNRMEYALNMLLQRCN

Query the reported IC50 for Serine/threonine-protein kinase PLK2 (Homo sapiens, UniProt Q9NYY3); item: COc1ccc2c(c1)/C(=C\c1ccc3cn[nH]c3c1)C(=O)N2
< 10 µM

Query the reported IC50 for Serine/threonine-protein kinase PLK2 (Homo sapiens, UniProt Q9NYY3); item: O=C1Nc2cc(Cl)ccc2/C1=C\c1ccc2cn[nH]c2c1
> 10 µM

Query the reported IC50 for Serine/threonine-protein kinase PLK2 (Homo sapiens, UniProt Q9NYY3); item: CN1CCN(c2ccc(/C=C/c3n[nH]c4cc(/C=C5/C(=O)Nc6ccccc65)ccc34)cn2)CC1
> 10 µM

---

Can you tell me pIC50 for the items I'm about to list?
# target-under-test: Serine/threonine-protein kinase PLK4 (Homo sapiens, UniProt O00444)
# Sequence (O00444 whole entry): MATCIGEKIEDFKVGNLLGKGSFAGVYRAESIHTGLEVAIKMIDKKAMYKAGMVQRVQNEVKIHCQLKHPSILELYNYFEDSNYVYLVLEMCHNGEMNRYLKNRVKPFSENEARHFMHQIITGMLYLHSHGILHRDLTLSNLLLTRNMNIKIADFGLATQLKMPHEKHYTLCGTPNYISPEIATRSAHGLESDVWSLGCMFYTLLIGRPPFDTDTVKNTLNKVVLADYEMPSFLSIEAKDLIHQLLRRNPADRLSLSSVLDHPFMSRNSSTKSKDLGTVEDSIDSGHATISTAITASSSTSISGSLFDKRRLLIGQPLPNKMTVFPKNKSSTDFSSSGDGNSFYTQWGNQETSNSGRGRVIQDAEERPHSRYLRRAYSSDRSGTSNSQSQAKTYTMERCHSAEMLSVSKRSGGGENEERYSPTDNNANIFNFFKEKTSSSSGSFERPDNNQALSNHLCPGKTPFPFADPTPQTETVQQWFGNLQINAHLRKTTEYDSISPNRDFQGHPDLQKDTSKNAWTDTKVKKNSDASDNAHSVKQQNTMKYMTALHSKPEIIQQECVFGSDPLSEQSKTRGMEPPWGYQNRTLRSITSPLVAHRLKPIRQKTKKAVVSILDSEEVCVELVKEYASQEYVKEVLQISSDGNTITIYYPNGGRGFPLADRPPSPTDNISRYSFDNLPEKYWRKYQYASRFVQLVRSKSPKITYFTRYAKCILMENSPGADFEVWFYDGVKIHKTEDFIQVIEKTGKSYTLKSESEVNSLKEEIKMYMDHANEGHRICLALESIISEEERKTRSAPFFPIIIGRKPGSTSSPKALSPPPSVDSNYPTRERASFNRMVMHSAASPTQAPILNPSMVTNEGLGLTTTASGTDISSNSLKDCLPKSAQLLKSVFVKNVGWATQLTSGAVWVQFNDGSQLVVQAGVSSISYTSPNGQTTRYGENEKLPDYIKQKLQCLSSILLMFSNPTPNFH
pIC50 here is simply -log10 of the concentration when that concentration is written in mol/L.

Bench note: what pIC50 did O=C1Nc2ccccc2/C1=C\c1ccc2[nH]nnc2c1 show?
5.66

Bench note: what pIC50 did O=C1Nc2ccc(O)cc2/C1=C\c1ccc2c(/C=C/c3ccncc3)n[nH]c2c1 show?
9.05

Bench note: what pIC50 did O=C1Nc2ccc(I)cc2/C1=C/c1cc(Br)c(O)c(Br)c1 show?
6.64

Bench note: what pIC50 did CNC(=O)c1ccc2c(c1)/C(=C\c1ccc3cn[nH]c3c1)C(=O)N2 show?
5.00

Bench note: what pIC50 did O=C1Nc2ccc(Cl)cc2/C1=C\c1ccc2cn[nH]c2c1 show?
7.27

Bench note: what pIC50 did CC(=O)Nc1ccc2c(c1)/C(=C\c1ccc3cn[nH]c3c1)C(=O)N2 show?
5.20

Bench note: what pIC50 did O=C1Nc2ccccc2/C1=C/c1ccc(O)cc1 show?
6.64
